Target: T1, Plasma kallikrein (pKLK) (Homo sapiens, UniProt P03952)
T1 construct: Plasma kallikrein (pKLK) was from Enzyme Research Laboratories; purchased Enzyme Research Laboratories (South Bend, IN)
T1 sequence (P03952 20-390 limits assumed): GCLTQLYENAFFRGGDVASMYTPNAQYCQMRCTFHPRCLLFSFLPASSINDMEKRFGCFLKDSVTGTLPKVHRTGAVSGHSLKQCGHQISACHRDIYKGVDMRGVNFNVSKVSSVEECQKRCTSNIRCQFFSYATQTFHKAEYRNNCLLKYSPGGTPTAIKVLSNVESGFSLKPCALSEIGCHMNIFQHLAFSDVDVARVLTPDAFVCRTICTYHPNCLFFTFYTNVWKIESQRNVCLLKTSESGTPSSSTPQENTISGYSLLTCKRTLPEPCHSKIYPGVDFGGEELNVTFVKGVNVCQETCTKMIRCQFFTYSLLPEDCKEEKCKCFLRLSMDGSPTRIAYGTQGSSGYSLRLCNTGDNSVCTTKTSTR
T1 sequence (P03952 391-638 limits assumed): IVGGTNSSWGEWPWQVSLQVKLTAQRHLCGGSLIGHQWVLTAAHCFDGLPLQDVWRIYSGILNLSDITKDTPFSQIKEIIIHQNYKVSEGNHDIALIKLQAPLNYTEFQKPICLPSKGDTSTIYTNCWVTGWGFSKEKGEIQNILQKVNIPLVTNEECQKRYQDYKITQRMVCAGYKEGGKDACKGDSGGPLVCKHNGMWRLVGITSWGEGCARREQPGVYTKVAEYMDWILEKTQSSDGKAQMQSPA
Experiment: Protease inhibition assay, plasma kallikrein
Type: biochemical
Settings: 1 nM kallikrein
Procedure: All reactions were carried out in TBS, pH 7.5 (50 mM Tris-HCL, pH 7.5, containing 100 mM NaCl), containing 0.1 mg bovine serum albumin/ml (TBS/BSA) and 2 mM Ca2+(TBS/BSA/Ca2+, pH 7.5). […] The inhibition constant, K* was determined using the nonlinear regression data analysis program Grafit. Ki values were obtained by correcting for the effect of substrate according to Beith (38), using equation 2, where (S) is substrate concentration and KM is specific for each enzyme.
pKi: −log10 of the molar value.
Readout: pKi

Summary for this molecule, KD1-L17R-KT (designed binder, also called KD1SM; single mutant) MGSSHHHHHHSSGHIDDDDKNAEICLLPLDYGPCRARLLRYYYDRYTQSCRQFLYGGCEGNANNFYTWEACDDACWRIEK : pKi is < 5.52
